Experiment: Drug level in rat brain at 30 mg/kg, ip after 2 hrs
Assay type: ADME, organism-based
Parameters: dose 30 mg/kg, route intraperitoneal
Conditions: read-out: Drug uptake
result-type: concentration at 2 h (nM)
Could you give me the number in nM? Just the number is fine.

What does the record list as concentration at 2 h for CCC(C)(CCN1CCOCC1)N(Cc1cc2ccccc2n(C)c1=O)C(=O)C1CCCCC1 (single isomer, unassigned; enantiomer 1) ?
665

----------
Biological target: Neuropeptide S receptor (Rattus norvegicus, UniProt P0C0L6)
Assay: Displacement of [125I]NPS from NPS receptor in rat brain superior coliculus after 30 mins
Format: tissue-based
result-type: IC50 (nM)
A number alone suffices; assume nM.

Name the reported IC50 value associated with the compound CCC(C)(CCN1CCOCC1)N(Cc1cc2ccccc2n(C)c1=O)C(=O)C1CCCCC1 (single isomer, unassigned; enantiomer 1)
1.44

----------
Molecular target: Neuropeptide S receptor (Rattus norvegicus, UniProt P0C0L6)
Sequence (P0C0L6 whole entry): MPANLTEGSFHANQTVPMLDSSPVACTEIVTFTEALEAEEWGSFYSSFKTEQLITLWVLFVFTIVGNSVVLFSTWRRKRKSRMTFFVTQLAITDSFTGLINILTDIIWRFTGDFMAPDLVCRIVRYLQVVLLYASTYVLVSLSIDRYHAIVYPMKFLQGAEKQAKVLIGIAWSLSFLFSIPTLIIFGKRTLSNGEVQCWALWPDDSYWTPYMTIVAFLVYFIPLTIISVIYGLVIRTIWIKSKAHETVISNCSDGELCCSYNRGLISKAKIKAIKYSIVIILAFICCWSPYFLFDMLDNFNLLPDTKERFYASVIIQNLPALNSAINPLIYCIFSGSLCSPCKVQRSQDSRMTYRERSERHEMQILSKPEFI
Experiment: Displacement of [3H]quinolinone from rat NPS receptor
result-type: pEC50
Please report pEC50 as the negative decimal logarithm of the molar concentration, giving only the number.

# get_value(readout= pEC50, system= Neuropeptide S receptor (Rattus norvegicus, UniProt P0C0L6)) for CCC(C)(CCN1CCOCC1)N(Cc1cc2ccccc2n(C)c1=O)C(=O)C1CCCCC1 (single isomer, unassigned; enantiomer 1)
8.89

----------
Assay: Protein binding in human plasma
Settings: read-out: PPB (converted)
Reported values of fraction unbound for individual entries
Just the number, please.

// lookup fraction unbound for CCC(C)(CCN1CCCCC1)N(Cc1cc2ccccc2n(C)c1=O)C(=O)C1CCCCC1 (racemic)
0.11

--- query ---
Returns the measured fraction unbound for the input compound. Input: CCC(C)(CCN1CCC(F)(F)CC1)N(Cc1cc2ccccc2n(C)c1=O)C(=O)C1CCCCC1 (racemic)
0.03

----------
Molecular target: Neuropeptide S receptor (Homo sapiens, UniProt Q6W5P4)
Sequence (Q6W5P4 whole entry): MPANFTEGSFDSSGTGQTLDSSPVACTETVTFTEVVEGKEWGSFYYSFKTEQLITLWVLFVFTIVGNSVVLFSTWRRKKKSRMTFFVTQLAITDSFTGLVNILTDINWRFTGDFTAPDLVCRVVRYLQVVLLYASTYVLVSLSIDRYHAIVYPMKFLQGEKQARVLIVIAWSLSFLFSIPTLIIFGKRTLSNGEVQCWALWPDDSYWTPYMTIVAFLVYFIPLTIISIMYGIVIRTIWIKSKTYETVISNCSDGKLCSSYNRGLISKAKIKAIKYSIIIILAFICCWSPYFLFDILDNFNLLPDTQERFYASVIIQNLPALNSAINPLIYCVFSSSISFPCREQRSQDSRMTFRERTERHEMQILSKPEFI
Assay: Antagonist activity at human recombinant NPS receptor expressed in CHOK1 cells assessed as inhibition of NPS-induced calcium mobilization by FLIPR assay
result-type: pIC50
The value called pIC50 is obtained by taking minus log10 of the concentration in mol/L.

So what does the record say about pIC50 for Cn1c(=O)c(CN(C(=O)C2CCCCC2)C2(CCN3CCOCC3)CCCCC2)cc2ccccc21 ?
6.40

Which pIC50 reading was recorded for the molecule CCC(C)(CCN1CCC(F)(F)CC1)N(Cc1cc2ccccc2n(C)c1=O)C(=O)C1CCCCC1 (racemic) ?
7.66

Fill in the blank: the reported pIC50 of CCC(C)(CCN1CCC(F)CC1)N(Cc1cc2ccccc2n(C)c1=O)C(=O)C1CCCCC1 (racemic) is ____.
7.85

If you can, please state the reported pIC50 value of Cn1c(=O)c(CN(C(=O)C2CCCCC2)C(C)(C)CCN2CCCCC2)cc2ccccc21 .
7.51

Suppose we examine the molecule CC(CCN1CCCC1)N(Cc1cc2ccccc2n(C)c1=O)C(=O)C1CCCCC1 (centres undefined) ; what pIC50 value has been reported?
5.80

***
For the molecule CCC(CC)(CCN1CCOCC1)N(Cc1cc2ccccc2n(C)c1=O)C(=O)C1CCCCC1 , what pIC50 is on record?
6.99

Need pIC50 of Cn1c(=O)c(CN(C(=O)C2CCCCC2)C(C)(C)CCN2CCOCC2)cc2ccccc21 , thanks.
6.84

# pIC50 lookup, item CCC(C)(CCN1CCOCC1)N(Cc1cc2ccccc2n(C)c1=O)C(=O)C1CCCCC1 (single isomer, unassigned; enantiomer 2)
6.11

Look up pIC50 for this molecule: CC(CCN1CCOCC1)N(Cc1cc2ccccc2n(C)c1=O)C(=O)C1CCCCC1 (centres undefined)
6.14

pIC50 lookup needed for CCC(C)(CCN1CCOCC1)N(Cc1cc2ccccc2n(C)c1=O)C(=O)C1CCCCC1 (single isomer, unassigned; enantiomer 1) , thanks.
8.00

----------
Target: Neuropeptide S receptor (Homo sapiens, UniProt Q6W5P4)
Test: Antagonist activity at human recombinant NPS receptor expressed in CHOK1 cells assessed as inhibition of NPS-induced calcium mobilization by FLIPR assay
result-type: pIC50
Scale explanation: pIC50 corresponds to minus log10 of a concentration expressed in moles per litre.

Sample Cn1c(=O)c(CN(C(=O)C2CCCCC2)C(C)(C)CCN2CCCC2)cc2ccccc21 — what was its pIC50?
6.49

Given the entry CN1CCN(C2(CN(Cc3cc4ccccc4n(C)c3=O)C(=O)C3CCCCC3)CCCCC2)CC1 , report its measured pIC50.
7.74

Next:
Entry CCC(C)(CCN1CCOCC1)N(Cc1cc2ccccc2n(C)c1=O)C(=O)C1CCCCC1 (racemic) has what pIC50?
7.64

May I ask what pIC50 has been recorded for CCC(C)(CCN1CCCCC1)N(Cc1cc2ccccc2n(C)c1=O)C(=O)C1CCCCC1 (racemic) ?
8.15
